- target_or_test_system: IκB-kinase (Homo sapiens, UniProt O14920+O15111)
- Construct: endogenous in cells; ammonium sulfate cut and Superose-6 gel filtration (670 kDa fractions)
- Sequence (O14920 whole entry): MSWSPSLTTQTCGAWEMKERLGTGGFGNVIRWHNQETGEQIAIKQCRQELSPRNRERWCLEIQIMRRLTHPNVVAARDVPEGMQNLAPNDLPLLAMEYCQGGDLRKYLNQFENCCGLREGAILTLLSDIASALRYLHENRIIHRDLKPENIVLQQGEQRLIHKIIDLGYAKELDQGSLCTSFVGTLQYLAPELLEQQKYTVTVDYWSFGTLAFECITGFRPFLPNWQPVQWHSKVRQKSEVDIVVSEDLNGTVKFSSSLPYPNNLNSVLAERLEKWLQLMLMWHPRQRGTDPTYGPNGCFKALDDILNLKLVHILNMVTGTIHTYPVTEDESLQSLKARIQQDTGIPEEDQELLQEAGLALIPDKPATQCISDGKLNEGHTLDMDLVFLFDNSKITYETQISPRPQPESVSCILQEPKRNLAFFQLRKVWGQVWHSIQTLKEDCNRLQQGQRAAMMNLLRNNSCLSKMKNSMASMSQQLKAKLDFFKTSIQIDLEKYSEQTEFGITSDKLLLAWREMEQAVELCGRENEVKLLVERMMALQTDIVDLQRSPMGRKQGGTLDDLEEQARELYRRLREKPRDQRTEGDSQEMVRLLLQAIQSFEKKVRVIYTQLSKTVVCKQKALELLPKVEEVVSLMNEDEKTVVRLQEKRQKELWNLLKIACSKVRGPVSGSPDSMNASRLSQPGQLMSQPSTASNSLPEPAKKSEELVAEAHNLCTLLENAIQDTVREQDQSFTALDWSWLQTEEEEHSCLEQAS
- Sequence (O15111 whole entry): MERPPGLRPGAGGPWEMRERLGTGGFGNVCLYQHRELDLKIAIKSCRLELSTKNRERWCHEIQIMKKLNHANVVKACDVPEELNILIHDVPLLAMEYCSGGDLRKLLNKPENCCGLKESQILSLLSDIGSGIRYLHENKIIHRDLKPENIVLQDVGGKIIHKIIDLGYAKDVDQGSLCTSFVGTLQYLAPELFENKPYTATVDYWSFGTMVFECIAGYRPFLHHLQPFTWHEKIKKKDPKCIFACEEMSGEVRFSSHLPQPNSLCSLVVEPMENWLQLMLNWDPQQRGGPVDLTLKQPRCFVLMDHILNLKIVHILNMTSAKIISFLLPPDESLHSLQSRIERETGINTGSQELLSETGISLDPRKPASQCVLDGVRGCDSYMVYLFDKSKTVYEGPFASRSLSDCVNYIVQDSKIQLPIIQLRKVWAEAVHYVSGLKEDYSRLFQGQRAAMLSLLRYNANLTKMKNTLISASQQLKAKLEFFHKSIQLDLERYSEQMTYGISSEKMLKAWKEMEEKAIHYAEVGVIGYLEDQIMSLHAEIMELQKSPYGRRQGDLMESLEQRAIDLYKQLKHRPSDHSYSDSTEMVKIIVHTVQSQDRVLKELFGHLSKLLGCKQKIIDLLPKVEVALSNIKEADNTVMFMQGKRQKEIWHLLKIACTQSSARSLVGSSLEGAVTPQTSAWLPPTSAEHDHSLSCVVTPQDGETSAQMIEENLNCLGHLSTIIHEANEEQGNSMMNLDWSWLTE
- Sequence (Q9Y6K9 whole entry partner): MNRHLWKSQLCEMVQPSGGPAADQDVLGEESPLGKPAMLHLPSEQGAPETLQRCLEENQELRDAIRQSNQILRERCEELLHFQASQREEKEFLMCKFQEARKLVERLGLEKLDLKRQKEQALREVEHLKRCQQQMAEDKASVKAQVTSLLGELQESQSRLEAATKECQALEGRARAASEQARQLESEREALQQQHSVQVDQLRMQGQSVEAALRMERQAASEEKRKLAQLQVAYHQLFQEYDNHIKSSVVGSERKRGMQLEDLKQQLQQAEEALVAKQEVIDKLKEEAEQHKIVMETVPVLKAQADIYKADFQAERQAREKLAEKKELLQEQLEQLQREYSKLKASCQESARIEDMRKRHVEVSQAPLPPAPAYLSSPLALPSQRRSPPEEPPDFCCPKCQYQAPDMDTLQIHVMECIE
- protocol_summary: IκB-Kinase ELISA
- measurement_setup: kinase complex from HeLa S3 cell extract, activated with MEKK1Δ
measurement_type: pIC50
Lab note: report pIC50 as minus log10 of the concentration in molar units, number only.

Need pIC50, item CNc1nccc(-c2nc3cc(C(=O)N[C@@H](CN(c4ccccc4)c4ccccc4)C(N)=O)ccc3[nH]2)n1 [Compound 22]
7.35
